- target under test: EGFR bearing the L858R/T790M double mutation (Homo sapiens, UniProt P00533, L858R/T790M)
- Sequence (P00533 25-1210 T790M/L858R): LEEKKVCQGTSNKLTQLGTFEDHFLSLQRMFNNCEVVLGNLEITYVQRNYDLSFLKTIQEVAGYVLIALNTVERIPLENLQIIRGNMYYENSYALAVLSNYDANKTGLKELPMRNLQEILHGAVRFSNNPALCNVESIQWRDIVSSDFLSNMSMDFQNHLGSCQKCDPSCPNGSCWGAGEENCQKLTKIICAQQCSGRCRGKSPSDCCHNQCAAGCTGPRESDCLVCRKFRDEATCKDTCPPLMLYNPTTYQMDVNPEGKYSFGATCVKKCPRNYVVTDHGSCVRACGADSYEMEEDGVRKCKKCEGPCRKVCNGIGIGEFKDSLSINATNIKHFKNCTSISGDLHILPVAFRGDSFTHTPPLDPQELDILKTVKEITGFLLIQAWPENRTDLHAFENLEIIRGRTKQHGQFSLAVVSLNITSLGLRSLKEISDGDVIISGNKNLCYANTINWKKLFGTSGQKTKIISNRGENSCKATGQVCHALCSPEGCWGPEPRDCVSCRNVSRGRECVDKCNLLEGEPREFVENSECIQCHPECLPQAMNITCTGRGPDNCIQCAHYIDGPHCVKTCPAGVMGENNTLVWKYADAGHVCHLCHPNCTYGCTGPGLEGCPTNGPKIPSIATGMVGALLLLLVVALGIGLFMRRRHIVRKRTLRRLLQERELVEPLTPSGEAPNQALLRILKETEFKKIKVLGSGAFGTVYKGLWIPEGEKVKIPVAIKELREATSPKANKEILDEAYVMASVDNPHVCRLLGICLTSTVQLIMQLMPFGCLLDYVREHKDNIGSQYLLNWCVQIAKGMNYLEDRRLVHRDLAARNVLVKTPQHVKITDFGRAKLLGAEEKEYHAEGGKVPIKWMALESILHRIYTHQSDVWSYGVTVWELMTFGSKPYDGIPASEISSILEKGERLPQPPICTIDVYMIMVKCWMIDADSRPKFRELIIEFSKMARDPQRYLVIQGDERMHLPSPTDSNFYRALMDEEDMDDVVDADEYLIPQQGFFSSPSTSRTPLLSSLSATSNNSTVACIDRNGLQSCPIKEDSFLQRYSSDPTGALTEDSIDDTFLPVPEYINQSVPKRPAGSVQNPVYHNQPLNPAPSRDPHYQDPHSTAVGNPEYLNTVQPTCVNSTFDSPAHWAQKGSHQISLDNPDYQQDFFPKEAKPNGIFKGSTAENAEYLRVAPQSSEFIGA
- procedure summary: Kinase inhibition, EGFR L858R/T790M
- Format: biochemical
- conditions used: 10 μM ATP; 10 pt curves, 3 μM top concentration (singlicates)
metric: IC50

// solved cases for IC50 follow
- molecule: "COc1ccc(NC(=O)/C=C/CN2CCN(C)CC2)cc1Nc1ncc(Cl)c(Nc2ccccc2P(C)(C)=O)n1 [Example 4]"
  IC50: "101 to 250 nM"
- molecule: "C=CC(=O)N[C@@H]1CCC[C@@H](Nc2ncc(Cl)c(Nc3ccccc3P(C)(C)=O)n2)C1 (racemic) [Example 42]"
  IC50: "≥ 250 nM"
- molecule: "C=CC(=O)Nc1ccc(OC)c(Nc2ncc(Cl)c(Nc3cccc(F)c3P(C)(C)=O)n2)c1 [Example 53]"
  IC50: "< 51 nM"
- molecule: "C=CC(=O)Nc1ccc(OC)c(Nc2ncc(Br)c(Nc3ccccc3P(C)(C)=O)n2)c1 [Example 12]"
  IC50: "< 51 nM"
- molecule: "C=CC(=O)N(C(=O)C=C)c1ccc(OC)c(Nc2ncc(Cl)c(Nc3ccccc3P(C)(C)=O)n2)c1 [Example 26]"
  IC50: "101 to 250 nM"

Here is another molecule to look at.
// returns reported IC50 for input C=CC(=O)Nc1ccc(OC)c(Nc2nc(Nc3ccccc3P(C)(C)=O)c3c(F)c[nH]c3n2)c1 [Example 23]
101 to 250 nM
